Numbers sourced from the supplement of paper PMC7125110.

Known self-cleavage kobs at 640 uM GlcN6P of a selection of variants
B1: glmS ribozyme (parent)
chain: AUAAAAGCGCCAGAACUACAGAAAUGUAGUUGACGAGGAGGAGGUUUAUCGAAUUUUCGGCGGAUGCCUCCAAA

# Variants of: B1
# ASSAY_DETAILS: self-cleavage kobs at 640 uM GlcN6P; higher = faster cleavage; RNA array
# ASSAY_CONDITIONS: with glucosamine-6-phosphate
Variants at the floor of the assay were thinned out.
Respond with the bare value in s⁻¹.

Solved cases (5 shown):
chain=AUAAAAGCGCCAGAACUACAGAAAUGUAGUUGACGAGGAGGAGGUUUAUCGGAUUUACGGCGGAUGCCUCCAAA unit_descriptor=s⁻¹ measured=6.62e-05
chain=AUAAAAGCGCCCGAACUACAGAAAUGUAGUUGACGAGGAGGAGGUUUAUCGAAUUUUCGGCGGAUGCCUCUAAA unit_descriptor=s⁻¹ measured=0.00448
chain=AUAAAAGCGCCAGAACUACAGAAAUGUAGGUGACGAGGAGGAGGUUUAUCGAAUUUUCGGCGGAUGACUCCAAA unit_descriptor=s⁻¹ measured=0.000561
chain=AUAAAAGCGCCAGAACUACAGAAAUGUAGUUGACGAGGAGGAGGUUUAUCGAAUUUUCGGCGGAUUGCUCCAAA unit_descriptor=s⁻¹ measured=0.000262
chain=AUAAAAGCGCCAGAACUACAGAAAUGUAGUUGACGAGGAGGAGGUUUAUCGAAUUUUCGGCGGAUGCCUCAAAA unit_descriptor=s⁻¹ measured=0.00298

Now look at this one.
Quick note, self-cleavage kobs at 640 uM GlcN6P for AUAAAAGCGCCAGAAAUACAGAAAUGUAGUUGACGAGGAGGAGGUUUAUCUAAUUUUCGGCGGAUGGCUCCAAA landed at 0.000109
